Below, each entry is listed with its recorded solubility kinetic at 10 min.
assay: Solubility determination; assay type: physicochemical; conditions: 22 °C, aqueous buffer, kinetic from dmso stock; solubility in DPBS, 100 μM test samples, LCMS; read-out: LCMS
Numbered stars: 1 amine (or outer) side, 2 acyl side, 3 side chain; on linkers, the order of the positions; unused ones are H or OH. Bridge positions count the residues as written; N and C are the ends. Square brackets hold non-standard residues; d marks the D form. Peptide text beside a SMILES is read from it. * marks the point of attachment. Piperazine(2S-CO,4-Me) = CN1CCN[C@H](C(=O)O)C1; Phe(3,5-F2) = N[C@@H](Cc1cc(F)cc(F)c1)C(=O)O; NH(1-Me-indolin-5-yl) = CN1CCc2cc(N*)ccc21; Morpholine(3S-CO) = O=C(O)[C@@H]1COCCN1; Phe(3-Me) = Cc1cccc(C[C@H](N)C(=O)O)c1; Pro(4R-Me) = C[C@H]1CN[C@H](C(=O)O)C1; Hyp = O=C(O)[C@@H]1C[C@@H](O)CN1; NH(4-Me-phenyl) = Cc1ccc(N*)cc1; aThr = C[C@H](O)[C@H](N)C(=O)O; Pip = O=C(O)[C@@H]1CCCCN1; CO = O=C([*:1])[*:2]
Could you give me the number in µM? Just the number is fine.

[[record]]
compound = "C[C@@H]1C[C@H]2C(=O)O[C@@H](C)[C@H](NC(=O)[C@H](Cc3cc(F)cc(F)c3)NC(=O)Nc3ccc4c(c3)CCN4C)C(=O)N3CCC[C@H]3C(=O)N3CCOC[C@H]3C(=O)N[C@@H](C)C(=O)N2C1 [Compound 32] ({NH(1-Me-indolin-5-yl)-CO}-[Phe(3,5-F2)][aThr]P[Morpholine(3S-CO)]A[Pro(4R-Me)]; ester 2-C)"
property = "solubility kinetic at 10 min"
data_value = 71.5

[[record]]
compound = "Cc1ccc(NC(=O)N[C@@H](Cc2cccc(C)c2)C(=O)N[C@@H]2C(=O)N3C[C@H](O)C[C@H]3C(=O)N3CCCC[C@H]3C(=O)N[C@@H](C)C(=O)N3C[C@H](C)C[C@H]3C(=O)O[C@H]2C)cc1 [Compound 26] ({NH(4-Me-phenyl)-CO}-[Phe(3-Me)][aThr][Hyp][Pip]A[Pro(4R-Me)]; ester 2-C)"
property = "solubility kinetic at 10 min"
data_value = 45.3


Exercise: // fetch solubility kinetic at 10 min given entry Cc1ccc(NC(=O)N[C@@H](Cc2cccc(C)c2)C(=O)N[C@H]2COC(=O)[C@@H]3C[C@@H](C)CN3C(=O)[C@H](C)NC(=O)[C@@H]3CN(C)CCN3C(=O)[C@@H]3CCCN3C2=O)cc1 [Compound 15] ({NH(4-Me-phenyl)-CO}-[Phe(3-Me)]SP[Piperazine(2S-CO,4-Me)]A[Pro(4R-Me)]; ester 2-C)
Solution: 57.2

* * *

assay: Plasma protein binding, rapid equilibrium dialysis; format: in vitro ADME, mouse; details: plasma binding, % Bound, mouse plasma
Numbered stars: 1 amine (or outer) side, 2 acyl side, 3 side chain; on linkers, the order of the positions; unused ones are H or OH. Bridge positions count the residues as written; N and C are the ends. Square brackets hold non-standard residues; d marks the D form. Peptide text beside a SMILES is read from it. * marks the point of attachment. X5 = O=C([C@@H]1C[C@@H](OP(=O)(O)O)CN1[*:1])[*:2]; Piperazine(2S-CO,4-Me) = CN1CCN[C@H](C(=O)O)C1; Phe(3-Me) = Cc1cccc(C[C@H](N)C(=O)O)c1; NH(4-Cl-2-F-phenyl) = Fc1cc(Cl)ccc1N*; Pro(4R-Me) = C[C@H]1CN[C@H](C(=O)O)C1; NH(4-Me-phenyl) = Cc1ccc(N*)cc1; aThr = C[C@H](O)[C@H](N)C(=O)O; Pip = O=C(O)[C@@H]1CCCCN1; CO = O=C([*:1])[*:2]
property: Mouse
Please answer using a numeric value trailed by its unit.

[[record]]
compound = "Cc1ccc(NC(=O)N[C@@H](Cc2cccc(C)c2)C(=O)N[C@H]2COC(=O)[C@@H]3C[C@@H](C)CN3C(=O)[C@H](C)NC(=O)[C@@H]3CN(C)CCN3C(=O)[C@@H]3CCCN3C2=O)cc1 [Compound 15] ({NH(4-Me-phenyl)-CO}-[Phe(3-Me)]SP[Piperazine(2S-CO,4-Me)]A[Pro(4R-Me)]; ester 2-C)"
property = "Mouse"
data_value = "77.0 ± 6.1%"


With those in mind, consider the next compound.
Exercise: Answer with the recorded Mouse for the compound listed here: Cc1cccc(C[C@H](NC(=O)Nc2ccc(Cl)cc2F)C(=O)N[C@@H]2C(=O)N3C[C@H](OP(=O)(O)O)C[C@H]3C(=O)N3CCCC[C@H]3C(=O)N[C@@H](C)C(=O)N3C[C@H](C)C[C@H]3C(=O)O[C@H]2C)c1 [Compound 29] ({NH(4-Cl-2-F-phenyl)-CO}-[Phe(3-Me)][aThr][X5][Pip]A[Pro(4R-Me)]; ester 2-C)
Solution: 96.9 ± 6.9%
